Where do the numbers come from? From patent US20230117470A1.

target: UniProtKB Q9NYK1; assay: TLR7 inhibition reporter assay (HEK-Blue cells, SEAP reporter, gardiquimod stimulation); conditions: HEK-Blue cells overexpressing human TLR7, SEAP reporter, gardiquimod 7.5 μM
Classify by IC50. Ranges: low value (below 3 nM), medium value (3 nM to below 10 nM), high value (10 nM or more)

Asked: Looking at Cc1cc(-c2[nH]nc(-c3ccc(C4CCN(C)CC4)cc3)c2C(C)C)cn2ncnc12 , which class would you pick?
Given back: medium value

Asked: Looking at Cc1cc(-c2[nH]nc(C3CCC(N(C)C(=O)C4CN(C(C)C)C4)CC3)c2C(C)C)cn2ncnc12 (single isomer, unassigned) [Example 304] , which class would you pick?
Given back: medium value

Asked: Looking at CCN(CCC#N)C(=O)c1n[nH]c(-c2cc(C)c3ncnn3c2)c1C(C)C , which class would you pick?
Given back: medium value

Asked: Looking at Cc1cc(-c2[nH]nc(C(=O)N[C@H]3CC[C@H](NC(C)C(C)C)CC3)c2C(C)C)cn2ncnc12 (stereo partly drawn) , which class would you pick?
Given back: low value

Asked: Looking at CC(=O)N1CCc2nc(-c3n[nH]c(-c4cc(C)c5ncnn5c4)c3C(C)C)sc2C1 , which class would you pick?
Given back: high value

Asked: Looking at CNC1CCC(c2n[nH]c(-c3cc(C)c4ncnn4c3)c2C(C)C)CC1 (single isomer, unassigned) [Example 294] , which class would you pick?
Given back: medium value

Asked: Looking at Cc1cc(-c2[nH]nc(C(=O)NC3CCN(C(C)C)CC3)c2C(C)C)ccn1 , which class would you pick?
Given back: medium value

Asked: Looking at CCC(C)N1CCC(NC(=O)c2n[nH]c(-c3cc(C)c4ncnn4c3)c2C(C)C)CC1 (stereo not drawn) , which class would you pick?
Given back: high value

Asked: Looking at Cc1cc(-c2[nH]nc(C(=O)N[C@H]3CC[C@@H](NCC4CCCC4)CC3)c2C(C)C)cn2ncnc12 , which class would you pick?
Given back: low value

Asked: Looking at Cc1cc(-c2[nH]nc(C(=O)N3CCC(N(C)C)CC3)c2C(C)C)cn2ncnc12 , which class would you pick?
Given back: medium value

Asked: Looking at COc1cc(-c2[nH]nc(C(=O)NCC(C)(C)N3CCOCC3)c2C(C)C)cn2ncnc12 , which class would you pick?
Given back: high value

Asked: Looking at Cc1cc(-c2[nH]nc(C(=O)N[C@H]3CC[C@@H](NC4CCOCC4)CC3)c2C(C)C)cn2ncnc12 , which class would you pick?
Given back: low value

Asked: Looking at COc1cc(-c2[nH]nc(-c3ccc(C4CCN(CCS(C)(=O)=O)CC4)cn3)c2C(C)C)cn2ncnc12 , which class would you pick?
Given back: high value

Asked: Looking at CCC(CC)N[C@H]1CC[C@H](NC(=O)c2n[nH]c(-c3cc(C)c4ncnn4c3)c2C(C)C)CC1 , which class would you pick?
Given back: medium value

Asked: Looking at Cc1cc(-c2[nH]nc(C3CCN(C(=O)CCNC(C)C)CC3)c2C(C)C)cn2ncnc12 , which class would you pick?
Given back: low value

Asked: Looking at CCN(C)C1CCC(c2n[nH]c(-c3cc(C)c4ncnn4c3)c2C(C)C)CC1 (single isomer, unassigned) [Example 283] , which class would you pick?
Given back: high value

Asked: Looking at Cc1cc(-c2[nH]nc(-c3ccc(C4CCN(C)CC4)nc3)c2C(C)C)cn2ncnc12 , which class would you pick?
Given back: high value

Asked: Looking at Cc1cc(-c2[nH]nc(C(=O)NC3CCN(CCC(F)(F)F)CC3)c2C(C)C)cn2ncnc12 [Example 69] , which class would you pick?
Given back: medium value

Asked: Looking at Cc1cc(-c2[nH]nc(C(=O)N[C@H]3CC[C@@H](NCC4(C)COC4)CC3)c2C(C)C)cn2ncnc12 , which class would you pick?
Given back: high value

Asked: Looking at Cc1cc(-c2[nH]nc(C(=O)NC3CCN(CCC(F)(F)F)CC3)c2C(C)C)cn2ncnc12 [Example 169] , which class would you pick?
Given back: medium value

Asked: Looking at Cc1cc(-c2[nH]nc(C(=O)N[C@H]3CC[C@H](NC4CCOCC4)CC3)c2C(C)C)cn2ncnc12 , which class would you pick?
Given back: medium value

Asked: Looking at Cc1cc(-c2[nH]nc(C(=O)NC3CCN(C(=O)OC(C)(C)C)CC3)c2C(C)C)cn2ncnc12 , which class would you pick?
Given back: low value

Asked: Looking at Cc1cc(-c2[nH]nc(C(=O)NC3CCN(C(C)C)CC3)c2C(C)C)cn(C)c1=O , which class would you pick?
Given back: medium value

Asked: Looking at COc1cc(-c2[nH]nc(-c3cnc(C4CCN(CC5CCOCC5)CC4)cn3)c2C(C)C)cn2ncnc12 , which class would you pick?
Given back: medium value

Asked: Looking at Cc1cc(-c2[nH]nc(C(=O)NC[C@@H]3CCCN3)c2C(C)C)cn2ncnc12 , which class would you pick?
Given back: low value

Asked: Looking at CCN1CC(c2ccc(-c3n[nH]c(-c4cc(C)c5ncnn5c4)c3C(C)C)cc2)C1 , which class would you pick?
Given back: high value

Asked: Looking at Cc1cc(-c2[nH]nc(C(=O)N[C@H]3CC[C@@H](NCc4cncnc4)CC3)c2C(C)C)cn2ncnc12 , which class would you pick?
Given back: low value

Asked: Looking at COc1ncc(CN[C@H]2CC[C@@H](NC(=O)c3n[nH]c(-c4cc(C)c5ncnn5c4)c3C(C)C)CC2)cn1 , which class would you pick?
Given back: low value

Asked: Looking at CCN1CC(c2ccc(-c3n[nH]c(-c4cc(OC)c5ncnn5c4)c3C(C)C)cc2)C1 , which class would you pick?
Given back: high value

Asked: Looking at Cc1cc(-c2[nH]nc(C3CCC(NCC(F)F)CC3)c2C(C)C)cn2ncnc12 (single isomer, unassigned) , which class would you pick?
Given back: high value

----------
molecular target: human TLR7 (Homo sapiens, UniProt Q9NYK1); assay: TLR7 inhibition reporter assay (HEK-Blue cells, SEAP reporter, gardiquimod stimulation); details: HEK-Blue cells overexpressing human TLR7, SEAP reporter, gardiquimod 7.5 μM
Sequence (Q9NYK1 27-1049): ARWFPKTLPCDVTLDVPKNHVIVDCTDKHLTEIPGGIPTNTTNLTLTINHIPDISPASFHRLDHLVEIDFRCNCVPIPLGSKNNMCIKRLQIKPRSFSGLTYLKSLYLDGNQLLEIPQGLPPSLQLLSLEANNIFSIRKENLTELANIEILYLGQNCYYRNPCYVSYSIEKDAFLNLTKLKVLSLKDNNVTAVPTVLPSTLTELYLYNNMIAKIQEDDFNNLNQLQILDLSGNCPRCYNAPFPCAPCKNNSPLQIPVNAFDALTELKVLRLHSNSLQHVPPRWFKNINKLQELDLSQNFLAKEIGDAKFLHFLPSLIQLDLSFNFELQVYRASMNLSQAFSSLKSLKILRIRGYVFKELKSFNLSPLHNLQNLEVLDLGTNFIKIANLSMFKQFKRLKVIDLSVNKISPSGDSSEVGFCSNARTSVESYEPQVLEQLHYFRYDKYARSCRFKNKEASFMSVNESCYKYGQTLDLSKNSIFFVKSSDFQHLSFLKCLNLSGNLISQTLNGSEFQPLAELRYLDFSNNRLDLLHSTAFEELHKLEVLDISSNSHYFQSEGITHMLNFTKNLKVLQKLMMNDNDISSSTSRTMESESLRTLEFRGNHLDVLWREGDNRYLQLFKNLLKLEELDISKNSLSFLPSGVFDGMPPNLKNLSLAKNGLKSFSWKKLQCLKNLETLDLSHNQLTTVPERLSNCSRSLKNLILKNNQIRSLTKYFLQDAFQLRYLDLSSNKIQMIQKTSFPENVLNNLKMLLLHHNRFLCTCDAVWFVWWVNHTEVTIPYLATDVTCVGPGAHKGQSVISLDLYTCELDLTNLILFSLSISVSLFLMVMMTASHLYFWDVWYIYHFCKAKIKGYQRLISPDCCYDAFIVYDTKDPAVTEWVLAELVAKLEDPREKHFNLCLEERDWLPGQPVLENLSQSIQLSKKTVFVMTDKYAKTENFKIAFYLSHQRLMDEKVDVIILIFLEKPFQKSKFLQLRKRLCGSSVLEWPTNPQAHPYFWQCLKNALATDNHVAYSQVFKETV
Assay endpoint: IC50
Number plus unit, in that order.

Asked: If you can, please state the reported IC50 value of COc1cc(-c2[nH]nc(-c3ccc(C4CCN(C)CC4)cc3)c2C(C)C)cn2ncnc12 [Example 314] .
Given back: 13.9 nM

Asked: If you can, please state the reported IC50 value of Cc1cc(-c2[nH]nc(-c3ncc4c(n3)CCN(C(C)C)C4)c2C(C)C)cn2ncnc12 [Example 250] .
Given back: 46.8 nM

Asked: If you can, please state the reported IC50 value of CCN1CCOC(CNC(=O)c2n[nH]c(-c3cc(C)c4ncnn4c3)c2C(C)C)C1 (stereo not shown) [Example 140] .
Given back: 0.59 nM

Asked: If you can, please state the reported IC50 value of Cc1cc(-c2[nH]nc(-c3ccc(C4CN(C(C)C)C4)cc3)c2C(C)C)cn2ncnc12 [Example 327] .
Given back: 7.5 nM

----------
target: human TLR7 (Homo sapiens); experiment: TLR7 inhibition reporter assay (HEK-Blue cells, SEAP reporter, gardiquimod stimulation); details: HEK-Blue cells overexpressing human TLR7, SEAP reporter, gardiquimod 7.5 μM
Can you tell me pIC50 for the items I'm about to list?
A value of pIC50 is the negative decimal logarithm of a concentration given in moles per litre.

Asked: If you can, please state the reported pIC50 value of CC(C)c1c(C(=O)NC2CCN(C(C)C)CC2)n[nH]c1-c1ccnc2[nH]ncc12 [Example 35] .
Given back: 8.56

Asked: If you can, please state the reported pIC50 value of Cc1cc(-c2[nH]nc(C3CCC(N(C)C(=O)C4CN(C)C4)CC3)c2C(C)C)cn2ncnc12 (single isomer, unassigned) [Example 302] .
Given back: 8.03

Asked: If you can, please state the reported pIC50 value of COc1cc(-c2[nH]nc(-c3cnc(C4CCN(CCCF)CC4)cn3)c2C(C)C)cn2ncnc12 [Example 399] .
Given back: 6.90

Asked: If you can, please state the reported pIC50 value of COCCNc1ccc2nc(-c3n[nH]c(-c4cc(C)c5ncnn5c4)c3C(C)C)sc2c1 [Example 267] .
Given back: 7.61

----------
target: UniProt:Q9NR96; assay: TLR9 inhibition reporter assay (HEK-Blue cells, SEAP reporter, ODN2006 stimulation); settings: HEK-Blue cells overexpressing human TLR9, SEAP reporter, ODN2006 5 nM
Sequence (Q9NR96 26-1032): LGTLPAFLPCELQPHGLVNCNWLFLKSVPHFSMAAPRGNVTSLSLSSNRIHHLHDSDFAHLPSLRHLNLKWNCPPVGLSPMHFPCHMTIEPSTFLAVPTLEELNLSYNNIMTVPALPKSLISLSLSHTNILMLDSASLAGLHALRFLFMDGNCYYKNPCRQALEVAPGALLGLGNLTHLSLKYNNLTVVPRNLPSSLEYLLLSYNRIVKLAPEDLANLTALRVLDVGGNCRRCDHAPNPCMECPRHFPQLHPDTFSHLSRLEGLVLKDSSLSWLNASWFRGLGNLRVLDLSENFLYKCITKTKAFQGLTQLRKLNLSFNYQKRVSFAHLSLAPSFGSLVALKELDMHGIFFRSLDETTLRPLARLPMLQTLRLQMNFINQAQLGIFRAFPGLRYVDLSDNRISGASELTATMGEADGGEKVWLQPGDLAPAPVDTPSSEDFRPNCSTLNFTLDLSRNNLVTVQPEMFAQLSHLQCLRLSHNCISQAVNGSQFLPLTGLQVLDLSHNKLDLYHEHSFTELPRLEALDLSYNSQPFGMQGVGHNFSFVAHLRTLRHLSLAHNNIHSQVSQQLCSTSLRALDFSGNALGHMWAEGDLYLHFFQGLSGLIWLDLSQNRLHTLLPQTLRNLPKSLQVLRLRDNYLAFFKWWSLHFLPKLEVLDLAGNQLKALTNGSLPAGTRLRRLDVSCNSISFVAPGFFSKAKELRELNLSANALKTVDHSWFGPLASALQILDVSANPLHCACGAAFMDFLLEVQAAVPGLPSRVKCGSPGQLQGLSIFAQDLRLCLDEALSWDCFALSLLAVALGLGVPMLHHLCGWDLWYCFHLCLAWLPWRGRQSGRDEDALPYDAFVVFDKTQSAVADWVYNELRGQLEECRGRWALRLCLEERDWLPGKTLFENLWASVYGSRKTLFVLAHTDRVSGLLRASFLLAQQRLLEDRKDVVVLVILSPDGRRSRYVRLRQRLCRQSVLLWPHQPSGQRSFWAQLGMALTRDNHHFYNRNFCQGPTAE
Assay endpoint: pIC50
A value of pIC50 is the negative decimal logarithm of a concentration given in moles per litre.

Asked: If you can, please state the reported pIC50 value of CCc1c(C(=O)NC2CCN(C(C)C)CC2)n[nH]c1-c1cc(C)c2ncnn2c1 .
Given back: 4.87

Asked: If you can, please state the reported pIC50 value of Cc1noc(C)c1CN1CCC(NC(=O)c2n[nH]c(-c3cc(C)c4ncnn4c3)c2C(C)C)CC1 .
Given back: 5.54

Asked: If you can, please state the reported pIC50 value of CNC(=O)CN1CCC(NC(=O)c2n[nH]c(-c3cc(OC)c4ncnn4c3)c2CC(F)(F)F)CC1 .
Given back: 4.67

Asked: If you can, please state the reported pIC50 value of Cc1cc(-c2[nH]nc(-c3ncc4c(n3)CCN(C3COC3)C4)c2C(C)C)cn2ncnc12 .
Given back: 4.34

Asked: If you can, please state the reported pIC50 value of Cc1cc(-c2[nH]nc(C3CCC(NCC(F)F)CC3)c2C(C)C)cn2ncnc12 (single isomer, unassigned) .
Given back: 4.62

Asked: If you can, please state the reported pIC50 value of Cc1cc(-c2[nH]nc(C(=O)N3CCOCC3)c2C(C)C)cn2ncnc12 .
Given back: 4.83

Asked: If you can, please state the reported pIC50 value of Cc1cc(-c2[nH]nc(C(=O)N[C@@H]3CCCN(C)C3)c2C(C)C)cn2ncnc12 .
Given back: 5.28
